# Experimental Target: Avi-KRAS G12V (1-169) GppNHp/RAF1 RBD-3xFLAG (52-151) (Homo sapiens, UniProt P01116, G12V)
# Construct: 50 nM Avi-KRAS G12V (1-169) GppNHp
# Sequence (P01116 1-169 isoform P01116-2 G12V): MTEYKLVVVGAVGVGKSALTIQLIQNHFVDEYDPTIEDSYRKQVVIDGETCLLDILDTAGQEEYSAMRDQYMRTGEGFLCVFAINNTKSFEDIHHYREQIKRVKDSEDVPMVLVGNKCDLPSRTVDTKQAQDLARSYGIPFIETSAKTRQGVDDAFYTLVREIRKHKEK
# Protocol Summary: RAS-effector PPI HTRF disruption assay, Raf1-GppNHp-KRAS G12V
Known IC50 of a selection of compounds

Compound	IC50
Nc1nc2c(-c3cc4nc(OC[C@@]56CCCN5C[C@H](F)C6)nc(O[C@H]5CNC[C@H]5F)c4cc3C(F)(F)F)ccc(F)c2s1	> 10 µM
Nc1nc2c(-c3cc4nc(OC[C@@]56CCCN5C[C@H](F)C6)nc(O[C@H]5CNC[C@@H]5F)c4cc3C(F)(F)F)ccc(F)c2s1	> 10 µM
Nc1nc2c(-c3c(C(F)(F)F)cc4c(O[C@@H]5CCNC5)nc(OC[C@@]56CCCN5C[C@H](F)C6)nc4c3Cl)ccc(F)c2s1 (atropisomer, axis not shown) [Compound 11]	> 10 µM
N#Cc1c(N)sc2c(F)ccc(-c3c(Cl)cc4c(O[C@H]5CCN[C@@H]5CO)nc(OC[C@@]56CCCN5C[C@H](F)C6)nc4c3F)c12 (atropisomer, axis not shown) [Compound 76]	≤ 0.1 µM
C[C@H]1C[C@H](Oc2nc(OC[C@@]34CCCN3C[C@H](F)C4)nc3c(F)c(-c4ccc(F)c5sc(N)c(C#N)c45)c(Cl)cc23)CN1 [Compound 54]	1 to 10 µM

Query compound follows.
Input line: Given C[C@H]1NCC[C@H]1Oc1nc(OC[C@@]23CCCN2C[C@H](F)C3)nc2cc(-c3ccc(F)c4sc(N)c(C#N)c34)c(C(F)(F)F)nc12 , state its recorded IC50.
Output line: 1 to 10 µM

---

Known pIC50 of a selection of molecules
# Experimental Target: Avi-KRAS G12D (1-169) GppNHp/RAF1 RBD-3xFLAG (52-151) (Homo sapiens, UniProt P01116, G12D)
# Construct: 100 nM Avi-KRAS G12D (1-169) GppNHp
# Sequence (P01116 1-169 isoform P01116-2 G12D): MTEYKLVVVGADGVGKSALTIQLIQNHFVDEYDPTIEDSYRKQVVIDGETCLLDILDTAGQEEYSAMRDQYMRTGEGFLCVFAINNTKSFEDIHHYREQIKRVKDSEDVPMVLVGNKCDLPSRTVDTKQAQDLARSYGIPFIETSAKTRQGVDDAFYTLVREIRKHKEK
# Protocol Summary: RAS-effector PPI HTRF disruption assay, Raf1-GppNHp-KRAS G12D
# Description: A protein:protein interaction (PPI) Homogeneous Time Resolved Fluorescence (HTRF) assay was used to determine the effectiveness of compounds of the present disclosure in disrupting KRAS protein and effector (RAF1 or PIK3 CA) binding. […] Plates were analyzed on an Envision plate reader using the following setting: Excitation 320 nm, Bandwidth […]; Emission 615 nm, Bandwidth […], Gain 100%, Flashes 100, Lag 60 μs. […] Data was plotted and analyzed using Prism 8. […]
pIC50: −log10 of the molar value.

Solved entries (count: 5):
Molecule	Readout Name	Result
Nc1nc2c(-c3ncc4c(O[C@@H]5CCNC5)nc(OC[C@@]56CCCN5C[C@H](F)C6)nc4c3F)ccc(F)c2s1	pIC50	< 5.00
N#Cc1c(N)sc2c(F)ccc(-c3ccc4c(O[C@H]5CNC[C@H]5F)nc(OC[C@@]56CCCN5C[C@H](F)C6)nc4c3F)c12	pIC50	5.00 to 6.00
N#Cc1c(N)sc2c(F)ccc(-c3c(Cl)cc4c(O[C@H]5CCN[C@@H]5CO)nc(OC[C@@]56CCCN5C[C@H](F)C6)nc4c3F)c12 (atropisomer, axis not shown) [Compound 76]	pIC50	≥ 7.00
Nc1nc2c(-c3c(C(F)(F)F)cc4c(O[C@@H]5CCNC5)nc(OC[C@@]56CCCN5C[C@H](F)C6)nc4c3F)ccc(F)c2s1 (atropisomer, axis not shown) [Compound 4]	pIC50	6.00 to 7.00
N#Cc1c(N)sc2c(F)ccc(-c3c(C(F)(F)F)cc4c(O[C@H]5CNC[C@@H]5F)nc(OC[C@@]56CCCN5C[C@H](F)C6)nc4c3F)c12	pIC50	6.00 to 7.00

Input line: Given C[C@@H]1C[C@H](Oc2nc(OC[C@@]34CCCN3C[C@H](F)C4)nc3c(F)c(-c4ccc(F)c5sc(N)c(C#N)c45)c(Cl)cc23)CN1 (atropisomer, axis not shown) [Compound 61] , state its recorded pIC50.
Output line: < 5.00
